Tested on: SF-268 CNS
Test: NCI tumour cell line growth inhibition, 48 h
Catalogue of TGI values

For orientation, consider the following solved cases.
C=CCNC(=O)N(CCC)CCCCC(NC(C)=O)C(=O)NCc1ccccc1 (stereo not given); > 100 µM
O=c1nc2c(c(-c3ccccc3Cl)[nH]1)COC/C2=C\c1ccccc1Cl; > 100 µM
CC1=NN(C(=O)CC(=O)N(C(=O)c2ccccc2Cl)c2ccc(C)cc2)C(=O)C1N=Nc1ccc([N+](=O)[O-])cc1 (stereo not given); > 100 µM
Nc1ccn(C2(CO)C=C(CO)C(O)C2O)c(=O)n1 (stereo not given); > 25.8 µM
Cc1ccc(/C(O)=C/C(=O)C(=O)/C=C(\O)c2ccc(C)cc2C)c(C)c1; 4.02 µM
CC(C)N=c1cc2n(-c3ccc(Cl)cc3)c3ccccc3nc-2cc1Nc1ccc(Cl)cc1; > 50 µM
COc1cc2c(cc1O)C1Cc3ccc(OC)c(O)c3C(C2)N1C (stereo not given); > 100 µM
O=C1NC(N/N=C/C(O)C(O)C(O)CO)=N/C1=C\c1ccco1 (stereo not given); > 100 µM
O=c1[nH]c2cc(Cl)ccc2nc1/C(=N\O)C(O)c1ccc(Cl)cc1Cl (stereo not given); > 100 µM

// next entry
Reported TGI of "Cc1ccc(-c2cc(N)n(-c3nc4c(c(=O)n(C)c(=O)n4C)n3C)n2)cc1" : > 100 µM
